Kindly supply the reported inhibition values for the records listed here.
- target_or_test_system: Alkaline phosphatase, tissue-nonspecific isozyme (Homo sapiens)
- protocol: human TNAP enzyme inhibitors, primary screen, biochemical, colorimetric, phosphate release readout (AID 614)
- condition_notes: purified TNAP, pNPP, malachite green phosphate absorbance; at 20 µM; active compounds read high
Among all 21,000 compounds or so, fewer than 10 were called active. These entries were drawn from the full list.
Answers are plain numbers, in %.

Example cases with answers are listed next.
compound	target_or_test_system	readout_value
CC(=O)Nc1cccc2c1[n+]([O-])c(C)c(C)[n+]2[O-]	Alkaline phosphatase, tissue-nonspecific isozyme (Homo sapiens)	2.9
CCc1nc2ccccc2n(CCOCCOCCn2c(=O)c(CC)nc3ccccc32)c1=O	Alkaline phosphatase, tissue-nonspecific isozyme (Homo sapiens)	8.8
Cc1ccc(C(=O)CSc2nc3ccccc3c(=O)n2N)o1	Alkaline phosphatase, tissue-nonspecific isozyme (Homo sapiens)	6
CC(=O)N1CCN(C(=O)Nc2cccc(C(F)(F)F)c2)CC1	Alkaline phosphatase, tissue-nonspecific isozyme (Homo sapiens)	-0.7
C/C(O)=C\c1nc(=O)c2c(C)cc(C)nc2n1-c1ccccc1	Alkaline phosphatase, tissue-nonspecific isozyme (Homo sapiens)	10.5

Provide reported inhibition for each item, in the same order as listed.
1. CC(C)OCCCNc1nc2c(c(=O)n(Cc3ccccc3F)c(=O)n2C)n1C
2. COc1cccc(N(CC(=O)Nc2cccc(N(C)S(C)(=O)=O)c2)S(C)(=O)=O)c1
3. COc1ccc(Cn2cccc(NC(=O)Nc3ccc(C#N)cc3)c2=O)cc1
4. COc1ccccc1NC(=O)C1=C(C)NC2=C(C(=O)CCC2)C1c1ccc(C)o1 (configuration not stated)
5. O=C(Nc1c(-c2ccccc2)nc2c(Br)cc(Br)cn12)c1ccco1
6. CCc1nc2oc3ccccc3c(=O)c2c(=O)n1Cc1ccc(OC)cc1
7. CCOC(=O)Cn1c(SC)nc2sc3c(c2c1=O)CC(C)(C)OC3
8. COC(=O)C1C(=O)CC(C)(O)C(C(=O)OC)C1c1ccc2c(c1)OCO2 (configuration not stated)

1: 11.4; 2: 0; 3: 10.4; 4: -1.3; 5: 9.2; 6: 6.6; 7: 11.5; 8: 9.9

Dear colleague, could you send me inhibition for each of the items below? Thanks.
1. O=C(NCc1cn2ccsc2n1)Nc1cccc(Cl)c1
2. COc1ccc(C(=O)Nc2ccc(S(=O)(=O)Nc3onc(C)c3C)cc2)cc1OC
3. COc1ccc(Br)cc1/C=N/n1c(C)nnc1C

0.5
0.4
8.2

Dear reader, for each entry below, please note its inhibition.
1. Cc1ccc(C(C(=O)NC2CCCC2)N(Cc2ccco2)C(=O)CCC(=O)Nc2ccccn2)cc1 (configuration not stated)
2. CC(C)(C)n1nnc(CCc2nnn(C(C)(C)C)n2)n1
3. O=C(Oc1ccccc1)c1ccc2nccnc2c1
4. O=C(Nc1cnccn1)c1cccnc1
5. Cc1cc2ccccc2n2c(SCC(=O)N3CCN(C(=O)c4ccco4)CC3)nnc12
6. CCc1ccccc1NC(=O)CSc1nnc([C@@H](NC(=O)OC(C)(C)C)C(C)C)o1
7. CCC(C)NC(=O)N[C@@H](CCSC)C(=O)O (some centres not stated)
8. CC12C(=O)N(n3cnnc3)C(=O)C1C1C=CC2C1 (configuration not stated)

7.3
0.3
8.8
6.7
12.5
4.3
8.1
-18.4

Record inhibition per entry; entries follow.
1. Cc1nc(NCCN)c(C#N)c2c1COC(C)(C)C2
2. CC1Cc2ccccc2N1C(=O)CSc1nnc(-c2ccc(S(=O)(=O)N3CCCCC3)cc2)o1 (configuration not stated)
3. COCCn1nnnc1C(c1ccccc1Cl)N1CCN(c2ccccc2OC)CC1 (configuration not stated)
4. CC1Cc2ccccc2N1C(=O)CSc1nc2ccccc2o1 (configuration not stated)
5. COc1ccc(CNC(=O)c2c(C)cc(=O)oc2C)cc1OC
6. Cc1cc(C)cc(NC(=O)N2CCC(NC(=O)c3ccc(F)cc3)CC2)c1
7. CC(Cc1cccs1)NC(=O)NC1CCCCC1 (configuration not stated)

1: 5.7; 2: 12.2; 3: 8.5; 4: 14; 5: 11.6; 6: 7.3; 7: 10

Can you give me inhibition for all of these, one by one?
1. CS(=O)(=O)N1CCN(C(=O)c2cc3ccccc3oc2=O)CC1
2. CCOP1(=O)C=C(C(C)(C)C)OC1c1ccc(F)cc1 (configuration not stated)
3. CCN1C(=O)/C(=C\N2CCN(c3ccccc3)CC2)SC1=S
4. O=c1oc2c(CN3CCCCC3)c(O)ccc2c2c1CCCCC2
5. O=C(CN(c1ccc2c(c1)OCCO2)S(=O)(=O)c1ccccc1)Nc1ccc2c(c1)OCO2
6. CC1(C)Oc2ccc(C(=O)N3CCOCC3)cc2N(CC(=O)Nc2ccccc2)C1=O

11.1
-0.2
10.1
8.2
5.3
-16.7

Below are 8 compounds. Give each one its inhibition.
1. O=C(c1cccc(S(=O)(=O)N2CCOCC2)c1)N1CCOCC1
2. CCn1c(SCC(=O)Nc2nc3ccc(OC)cc3s2)nnc1-c1ccoc1C
3. COC(=O)c1ccc(N(CC(=O)NC2CCCC2)C(=O)CNC(=O)c2ccco2)cc1
4. Cc1nc(N2CCCC2C(=O)O)c2oc3ccccc3c2n1 (configuration not stated)
5. CC(Sc1nncs1)C(=O)NCc1ccc2c(c1)OCO2 (configuration not stated)
6. CCOC(=O)c1c(NC(=O)CSc2nnc(C)c(=O)[nH]2)sc2c1CCC2
7. CCOC(=O)c1cc2cc(C)ccc2[nH]1
8. COc1cccc(N(CC(=O)Nc2cccc(F)c2)S(C)(=O)=O)c1

1: 6.8; 2: 1.9; 3: 0; 4: 10.7; 5: 18.9; 6: 10.5; 7: -8.6; 8: 0.7

Give inhibition for each of the items listed below.
1. CC1CCN(C(=O)Cn2cc(C(=O)c3ccco3)c3ccccc32)CC1
2. Cc1ccc(C(=O)CS(C)(=O)=O)cc1

1. 14.2
2. -1.2
